Let's look at some molecules and their measured Conversion rate.
assayProtocol: Conversion rate of substrate compound A by E. coli expressing each engineered protein (HPLC, oxygenase activity)
Format: biochemical
settings: Reaction condition 1: bacteria cultured overnight, substrate compound A and IPTG added to react overnight
quantityName: Conversion rate

molecule="SEQ ID NO: 62 (protein) MHAALSPLSQRFERIAVQPLTGVLGAEITGVDLREPLDDSTWNEILDAFHTYQVIYFPGQAITNEQHIAFSRRFGPVDPVPHLKSIEGYPEVQMIRREANESGGVIGCDWHTDSTFLDAPPAAVVMRAIDVPEHGGDTGFLSMYTAWETLSPTMQATIEGLNVVHSATRVFGSLYQAQNRRWSNTSLKVMDVDAGDRETVHPLVVTHPGSGRKGLYVNQVYCQRIEGMTDAESKPLLQFLYEHATRFDFTCRVRWKKDQVLVWDNLCTMHRAVPDYAGKFRYLTRTTVGGVRPAR" quantityname="Conversion rate" experimentalresult=90%
molecule="SEQ ID NO: 122: RdpA mutant L82H + V187L + F182W + G103L + R104G + V105Y (protein) MHAALSPLSQRFERIAVQPLTGVLGAEITGVDLREPLDDSTWNEILDAFHTYQVIYFPGQAITNEQHIAFSRRFGPVDPVPHLKSIEGYPEVQMIRREANESLGYIGDDWHTDSTFLDAPPAAVVMRAIDVPEHGGDTGFLSMYTAWETLSPTMQATIEGLNVVHSATRVFGSLYQAQNRRWSNTSLKVMDVDAGDRETVHPLVVTHPGSGRKGLYVNQVYCQRIEGMTDAESKPLLQFLYEHATRFDFTCRVRWKKDQVLVWDNLCTMHRAVPDYAGKFRYLTRTTVGGVRPAR" quantityname="Conversion rate" experimentalresult=94.3%
molecule="SEQ ID NO: 70 (protein) MHAALSPLSQRFERIAVQPLTGVLGAEITGVDLREPLDDSTWNEILDAFHTYQVIYFPGQAITNEQHIAFSRRFGPVDPVPHLKSIEGYPEVQMIRREANESGGVIGDDWHTDSTFLDAPPAAVVMRAIDVPEHGGDTGFLSMYTAWETLSPTMQATIEGLNVVHSATRVFGSLYQAQNRRWSNTSLKVMDVDAGDRETVHPLVVTHPGSGRKGLYVNCVYCQRIEGMTDAESKPLLQFLYEHATRFDFTCRVRWKKDQVLVWDNLCTMHRAVPDYAGKFRYLTRTTVGGVRPAR" quantityname="Conversion rate" experimentalresult=94%

Data origin: patent US20250163449A1
